target: UniProt:P0DTD1; test: NSP14 MTase inhibition assay at 37° C. (MTase-Glo SAH detection); format: biochemical, SARS-CoV-2; conditions: 37° C., 0.3 nM NSP14, 2.5 μM SAM, 2.5 μM GpppA RNA; read-out: Nsp14 Mtase Inh. IC50
The entries below come with measured IC50 values attached.
Property Name: IC50 (nM)

>>> reading("Cc1c(S(=O)(=O)c2ccc3[nH]ncc3c2)cc(C(=O)NCc2ccn(C3CC3)n2)n1C")
172
>>> reading("Cc1c(S(=O)(=O)c2ccc3[nH]ncc3c2)cc(C(=O)NCc2cccc3nnn(C)c23)n1C")
0.2
>>> reading("Cc1c(S(=O)(=O)c2ccc3[nH]ncc3c2)cc(C(=O)NCc2cncnc2N2CCC(F)(F)C2)n1C")
0.22
>>> reading("Cc1c(S(=O)(=O)c2ccc3[nH]ncc3c2)cc(C(=O)NCc2ccn(C(F)F)n2)n1C")
149

Recorded values, source patent US20260226034A1.
